- System: BT-549
- test summary: NCI tumour cell line growth inhibition, 48 h
Calls of active or inactive are those of the source. Cut-off read from the data, not from the text of the source: active = GI50 up to about 1.1 µM and inactive = higher.
Your reply should match one of these outcome classes. t = active, f = inactive

Prompt: Outcome? CSC(=S)OC1CC(n2cnc3c(NC(=O)c4ccccc4)ncnc32)OC1CO[Si](C)(C)C(C)(C)C (stereo unspecified)
Completion: f

Prompt: Outcome logged for Cc1ccsc1/C=N/Nc1nncc2ccccc12 in this assay:
Completion: f

Prompt: Recorded test call requested for COc1ccc(CCN(C)C(=O)CC(C#N)(c2ccccc2)c2ccc(OC)c(OC)c2)cc1OC (stereo unspecified)
Completion: f

Prompt: Hi team, can someone confirm the assay call for CC(=O)OCC1OC(On2ccccc2=S)C(OC(C)=O)C(OC(C)=O)C1OC(C)=O (stereo unspecified) ?
Completion: f

Prompt: Field: outcome | Entry: O=C(O)c1ccccc1-c1ccccc1C(=O)Nc1ccc2c(c1)Cc1ccccc1-2
Completion: f

Prompt: Field: outcome | Entry: Cn1c(=O)c2c(nc3n2CCCC(=O)N3CCCCl)n(C)c1=O
Completion: f

Prompt: # lookup: test call for CC1C(=O)O[B-]2(c3ccccc3)Oc3ccccc3C=[N+]12 (stereo unspecified)
Completion: f

Prompt: Record lookup: outcome of this test for O=C(O)CC1(C(=O)O)CCCCC1 ?
Completion: f

Prompt: What is the recorded call for this molecule in the test? C[C@]12CC[C@H]3[C@@H](CC[C@]4(O)C[C@@H](O)CC[C@]34/C=N/O)[C@@]1(O)CC[C@@H]2C1=COC(=O)C1
Completion: t

Prompt: Record request — test call for N#Cc1c(O)c(/C=N/c2ccc(Cl)cc2)c(=O)n2c1[nH]c1ccccc12
Completion: f

Prompt: Would you mind telling me which call this test gave CN(C)CCCNC(=O)CCNC(=O)c1cc(NC(=O)c2cc(NC(=O)c3cc(NC(=O)c4nccn4C)cn3C)cn2C)cn1C ?
Completion: f

Prompt: GET /call?item= N[C@@H]1c2c(Br)sc(Br)c2[C@H](O)[C@@H]1O returns the recorded outcome of this test.
Completion: f

Prompt: I'd appreciate the recorded outcome for NCCCCC(NC(=O)C(N)Cc1ccc(O)cn1)C(=O)O (stereo unspecified) from this test.
Completion: f

Prompt: Hey, what did the test say about COc1ccc(OC)c2c1C(=O)C(O)=C(Cl)C2=O ?
Completion: f

Prompt: What was the test verdict on CC(=O)c1c(-c2cccc3ccccc23)c(C#N)c(=S)n(C2OC(CO)C(O)C(O)C2O)c1C (stereo unspecified) ?
Completion: f

Prompt: Hi, sorry to bother you, what did the test record for CCOc1cc(NC(C)=O)ccc1C(=O)NN1C(=O)/C(=C/c2cc(OC)c(OC)c(OC)c2)N=C1c1ccccc1 ?
Completion: f

Prompt: Please state the recorded outcome for this molecule: CCOC(=O)Cc1csc2[n+]1C(=O)/C(=C/c1cccc(OC)c1O)S2
Completion: f

Prompt: So what was the verdict on CC1=C(c2ccccc2)NC(=S)C(C)C(c2ccccc2)=N1 (stereo unspecified) in this test?
Completion: f

Prompt: Could you kindly confirm the outcome this assay logged for Cc1cc(=O)[nH]c2c1C(=O)c1c(C)cc(=O)n(C)c1C2=O ?
Completion: t

Prompt: # outcome recorded in this test, key = N#C/C(N)=C(\C#N)NC(=O)C(=O)N/C(C#N)=C(\N)C#N
Completion: f

Prompt: Hi, sorry to bother you, what did the test record for COc1cc(C[C@@H](C)N)cc(OC)c1 ?
Completion: f

Prompt: For this molecule, state the assay outcome: C=CCN1C(=O)CC(=O)N(NC2=NNC3(C(=O)N2)c2ccccc2-c2ccccc23)C1=S
Completion: f

Prompt: Could you please tell me the result logged for CC1=C[C@@H]2Cc3nc4cc(Cl)ccc4c(N)c3[C@H](C1)C2 in this assay?
Completion: f

Prompt: Tell me the assay call for CN(C)/C=C/c1nnc([N+](=O)[O-])s1 please.
Completion: f

Prompt: For Cc1ccc(S(=O)(=O)C2=Cc3ccccc3C2(O)c2ccccc2)cc1 (stereo unspecified) , which call appears in the assay record?
Completion: f

Prompt: What outcome does the record of this test show for O=C1Nc2ccc(Br)cc2/C1=N/NC(=S)Nc1ccc(F)cc1 ?
Completion: t
